Field: relative viability. Provide a value for each of the molecules that follow.
system: BEN; assay: relative viability (nuclei count vs DMSO), 5 days (fraction); higher = more cells survive; details: first compound 0.08 µM
Respond numerically, and do not add a unit to the figure.

Reported relative viability of Cc1cnc(-c2cnc(NCCNc3ccc(C#N)cn3)nc2-c2ccc(Cl)cc2Cl)[nH]1 + O=C(CCCCCCC(=O)Nc1ccccc1)NO [Vorinostat] (partner 1 µM) : 0.575

Lab book: relative viability of Cc1cnc(-c2cnc(NCCNc3ccc(C#N)cn3)nc2-c2ccc(Cl)cc2Cl)[nH]1 + Nc1ncn([C@H]2C[C@H](O)[C@@H](CO)O2)c(=O)n1 [Decitabine] (partner 2 µM) noted as 0.768

The measured relative viability associated with Cc1cnc(-c2cnc(NCCNc3ccc(C#N)cn3)nc2-c2ccc(Cl)cc2Cl)[nH]1 + CCNC(=O)c1noc(-c2cc(C(C)C)c(O)cc2O)c1-c1ccc(CN2CCOCC2)cc1 [Luminespib] (partner 0.01 µM) reads 0.338

// recorded relative viability for O=c1[nH]c2ccccc2n1C1CCN(CCCC(c2ccc(F)cc2)c2ccc(F)cc2)CC1 [Pimozide] + Cc1nc(NC(=O)N2CCC[C@H]2C(N)=O)sc1-c1ccnc(C(C)(C)C(F)(F)F)c1 [Alpelisib] (partner 2 µM) : 1.08

Notebook: O=c1[nH]c2ccccc2n1C1CCN(CCCC(c2ccc(F)cc2)c2ccc(F)cc2)CC1 [Pimozide] + O=C(c1cc(Cc2n[nH]c(=O)c3ccccc23)ccc1F)N1CCN(C(=O)C2CC2)CC1 [Olaparib] (partner 8 µM) , relative viability read as 1.15

Kindly note the recorded relative viability for Cc1cnc(-c2cnc(NCCNc3ccc(C#N)cn3)nc2-c2ccc(Cl)cc2Cl)[nH]1 + O=C(c1cc(Cc2n[nH]c(=O)c3ccccc23)ccc1F)N1CCN(C(=O)C2CC2)CC1 [Olaparib] (partner 8 µM) , which is 1.17

molecule O=c1[nH]c2ccccc2n1C1CCN(CCCC(c2ccc(F)cc2)c2ccc(F)cc2)CC1 [Pimozide] + Cc1nc(Nc2ncc(C(=O)Nc3c(C)cccc3Cl)s2)cc(N2CCN(CCO)CC2)n1 [Dasatinib] (partner 0.075 µM) , relative viability observed: 0.279

====

system: PC-3 [JPC-3]; assay: relative viability (nuclei count vs DMSO), 5 days (fraction); higher = more cells survive; details: first compound 0.8 µM
Entries are sorted into classes by relative viability as follows: small value = under 0.5, mid value = from 0.5 up to 0.9, large value = 0.9 and over

## Task Lab note: which band did O=c1[nH]c2ccccc2n1C1CCN(CCCC(c2ccc(F)cc2)c2ccc(F)cc2)CC1 [Pimozide] + CC(=O)c1c(C)c2cnc(Nc3ccc(N4CCNCC4)cn3)nc2n(C2CCCC2)c1=O [Palbociclib] (partner 0.5 µM) land in?
## Result small value

## Task # classify by relative viability band: O=c1[nH]c2ccccc2n1C1CCN(CCCC(c2ccc(F)cc2)c2ccc(F)cc2)CC1 [Pimozide] + CC(=O)Nc1cccc(-n2c(=O)n(C3CC3)c(=O)c3c(Nc4ccc(I)cc4F)n(C)c(=O)c(C)c32)c1 [Trametinib] (partner 0.02 µM)
## Result mid value

## Task In plain terms, what class is O=c1[nH]c2ccccc2n1C1CCN(CCCC(c2ccc(F)cc2)c2ccc(F)cc2)CC1 [Pimozide] + COc1cc2c(Oc3ccc(NC(=O)C4(C(=O)Nc5ccc(F)cc5)CC4)cc3F)ccnc2cc1OCCCN1CCOCC1 [Foretinib] (partner 0.25 µM) ?
## Result large value

## Task For this compound, which bin applies? Cc1cnc(-c2cnc(NCCNc3ccc(C#N)cn3)nc2-c2ccc(Cl)cc2Cl)[nH]1 + O=C(CCCCCCC(=O)Nc1ccccc1)NO [Vorinostat] (partner 1 µM)
## Result mid value

## Task Quick check: band for O=c1[nH]c2ccccc2n1C1CCN(CCCC(c2ccc(F)cc2)c2ccc(F)cc2)CC1 [Pimozide] + CCNC(=O)c1noc(-c2cc(C(C)C)c(O)cc2O)c1-c1ccc(CN2CCOCC2)cc1 [Luminespib] (partner 0.01 µM)
## Result mid value

## Task Dear colleague, I would appreciate it if you could identify the bin for O=c1[nH]c2ccccc2n1C1CCN(CCCC(c2ccc(F)cc2)c2ccc(F)cc2)CC1 [Pimozide] + N=C(N)NC(=N)NCCc1ccccc1 [Phenformin] (partner 250 µM) and reply at your convenience.
## Result small value

## Task Using the reported relative viability, which band applies to Cc1cnc(-c2cnc(NCCNc3ccc(C#N)cn3)nc2-c2ccc(Cl)cc2Cl)[nH]1 + CC(=O)c1c(C)c2cnc(Nc3ccc(N4CCNCC4)cn3)nc2n(C2CCCC2)c1=O [Palbociclib] (partner 0.5 µM) ?
## Result mid value

## Task The entry to classify is O=c1[nH]c2ccccc2n1C1CCN(CCCC(c2ccc(F)cc2)c2ccc(F)cc2)CC1 [Pimozide] + Nc1nc2[nH]cc(CCc3ccc(C(=O)N[C@@H](CCC(=O)O)C(=O)O)cc3)c2c(=O)[nH]1 [Pemetrexed] (partner 0.2 µM) ; which class holds it?
## Result large value

## Task Please classify: Cc1cnc(-c2cnc(NCCNc3ccc(C#N)cn3)nc2-c2ccc(Cl)cc2Cl)[nH]1 + C[C@]1(O)C[C@@H](c2nc(-c3ccc4ccc(-c5ccccc5)nc4c3)c3c(N)nccn32)C1 [Linsitinib] (partner 1 µM)
## Result large value

====

Provide the reported relative viability of each item.
tested on: NCI-H1648; test: relative viability (nuclei count vs DMSO), 5 days (fraction); higher = more cells survive; conditions: first compound 1.265 µM

// returns relative viability for Cc1sc2c(c1C)C(c1ccc(Cl)cc1)=N[C@@H](CC(=O)OC(C)(C)C)c1nnc(C)n1-2 [JQ1] + NC(=O)Nc1cc(-c2cccc(F)c2)sc1C(=O)N[C@H]1CCCNC1 [AZD7762] (partner 0.2 µM) with NCI-H1648; value = 0.376

Reported NCI-H1648 relative viability for item Cc1sc2c(c1C)C(c1ccc(Cl)cc1)=N[C@@H](CC(=O)OC(C)(C)C)c1nnc(C)n1-2 [JQ1] + Nc1ncn([C@H]2C[C@H](O)[C@@H](CO)O2)c(=O)n1 [Decitabine] (partner 2 µM) was 0.398

The measured relative viability that Cc1sc2c(c1C)C(c1ccc(Cl)cc1)=N[C@@H](CC(=O)OC(C)(C)C)c1nnc(C)n1-2 [JQ1] + CC(=O)Nc1cccc(-n2c(=O)n(C3CC3)c(=O)c3c(Nc4ccc(I)cc4F)n(C)c(=O)c(C)c32)c1 [Trametinib] (partner 0.02 µM) showed for NCI-H1648 is 0.303

Observed relative viability, NCI-H1648, Cc1sc2c(c1C)C(c1ccc(Cl)cc1)=N[C@@H](CC(=O)OC(C)(C)C)c1nnc(C)n1-2 [JQ1] + CC(=O)c1c(C)c2cnc(Nc3ccc(N4CCNCC4)cn3)nc2n(C2CCCC2)c1=O [Palbociclib] (partner 0.5 µM) : 0.358

====

tested on: HCC-366; assay: relative viability (nuclei count vs DMSO), 5 days (fraction); higher = more cells survive; conditions: first compound 0.002 µM
Give relative viability for every item shown.
Respond using a number only.

For CC(=O)O[C@@]12CO[C@@H]1C[C@H](O)[C@@]1(C)C(=O)[C@H](O)C3=C(C)[C@@H](OC(=O)[C@H](O)[C@@H](NC(=O)OC(C)(C)C)c4ccccc4)C[C@@](O)([C@@H](OC(=O)c4ccccc4)[C@H]21)C3(C)C [Docetaxel] + N=C(N)NC(=N)NCCc1ccccc1 [Phenformin] (partner 250 µM) the molecule record lists relative viability as 0.147

Entry under test: CC(=O)O[C@@]12CO[C@@H]1C[C@H](O)[C@@]1(C)C(=O)[C@H](O)C3=C(C)[C@@H](OC(=O)[C@H](O)[C@@H](NC(=O)OC(C)(C)C)c4ccccc4)C[C@@](O)([C@@H](OC(=O)c4ccccc4)[C@H]21)C3(C)C [Docetaxel] + O=C(c1cc(Cc2n[nH]c(=O)c3ccccc23)ccc1F)N1CCN(C(=O)C2CC2)CC1 [Olaparib] (partner 8 µM) . Its relative viability was 0.0486

molecule CC(=O)O[C@@]12CO[C@@H]1C[C@H](O)[C@@]1(C)C(=O)[C@H](O)C3=C(C)[C@@H](OC(=O)[C@H](O)[C@@H](NC(=O)OC(C)(C)C)c4ccccc4)C[C@@](O)([C@@H](OC(=O)c4ccccc4)[C@H]21)C3(C)C [Docetaxel] + CS(=O)(=O)CCNCc1ccc(-c2ccc3ncnc(Nc4ccc(OCc5cccc(F)c5)c(Cl)c4)c3c2)o1 [Lapatinib] (partner 2 µM) , relative viability observed: 0.0282

The molecule listed as CC(=O)O[C@@]12CO[C@@H]1C[C@H](O)[C@@]1(C)C(=O)[C@H](O)C3=C(C)[C@@H](OC(=O)[C@H](O)[C@@H](NC(=O)OC(C)(C)C)c4ccccc4)C[C@@](O)([C@@H](OC(=O)c4ccccc4)[C@H]21)C3(C)C [Docetaxel] + CS(=O)(=O)N1CCN(Cc2cc3nc(-c4cccc5[nH]ncc45)nc(N4CCOCC4)c3s2)CC1 [Pictilisib] (partner 1 µM) has a reported relative viability of 0.0735
